// reported Autosampler (72h, 4°C) Accuracy [%] per item
procedure details: Autosampler stability of ready for injection samples
Format: physicochemical, human
assay setup: validation standard ULOV
Report the figure along with its unit, number first.

Reported Autosampler (72h, 4°C) Accuracy [%] of CCN1CCN(Cc2ccc(Nc3ncc(F)c(-c4cc(F)c5nc(C)n(C(C)C)c5c4)n3)nc2)CC1 : 100.1%

Reported Autosampler (72h, 4°C) Accuracy [%] of C=CC(=O)N1CCC[C@@H](n2nc(-c3ccc(Oc4ccccc4)cc3)c3c(N)ncnc32)C1 : 102.6%

Reported Autosampler (72h, 4°C) Accuracy [%] of CCc1cc2c(cc1N1CCC(N3CCOCC3)CC1)C(C)(C)c1[nH]c3cc(C#N)ccc3c1C2=O : 100.6%

Reported Autosampler (72h, 4°C) Accuracy [%] of CNC(=O)c1ccc(N2C(=S)N(c3ccc(C#N)c(C(F)(F)F)c3)C(=O)C2(C)C)cc1F [Enzalutamide] : 103.3%

Reported Autosampler (72h, 4°C) Accuracy [%] of Cc1cc(Nc2ncc(Cl)c(Nc3ccccc3S(=O)(=O)C(C)C)n2)c(OC(C)C)cc1C1CCNCC1 : 106.5%

Reported Autosampler (72h, 4°C) Accuracy [%] of Cc1ccc(NC(=O)c2ccc(CN3CCN(C)CC3)cc2)cc1Nc1nccc(-c2cccnc2)n1 : 95.2%

Reported Autosampler (72h, 4°C) Accuracy [%] of CC(=O)Nc1cccc(-n2c(=O)n(C3CC3)c(=O)c3c(Nc4ccc(I)cc4F)n(C)c(=O)c(C)c32)c1 : 97.0%

Reported Autosampler (72h, 4°C) Accuracy [%] of COc1cc2ncnc(Nc3ccc(F)c(Cl)c3)c2cc1OCCCN1CCOCC1 : 97.0%

* * *

// reported Long-term stability, 1 month, -20°C Accuracy [%] per item
procedure details: Long-term stability in spiked pooled human plasma
assay setup: validation standard MOV
Report the figure along with its unit, number first.

Reference set, count: 3
compound	observed result
CN(C)C/C=C/C(=O)Nc1cc2c(Nc3ccc(F)c(Cl)c3)ncnc2cc1O[C@H]1CCOC1 [Afatinib]	87.9%
Nc1cccc2c1C(=O)N(C1CCC(=O)NC1=O)C2=O (stereo not drawn) [Pomalidomide]	90.6%
CNC(=O)c1cc(Oc2ccc(NC(=O)Nc3ccc(Cl)c(C(F)(F)F)c3)c(F)c2)ccn1 [Regorafenib]	101.6%

Reported Long-term stability, 1 month, -20°C Accuracy [%] of CNC(=O)c1ccccc1Sc1ccc2c(/C=C/c3ccccn3)n[nH]c2c1 [Axitinib] : 89.8%

Reported Long-term stability, 1 month, -20°C Accuracy [%] of COc1cc(N2CCC(N3CCN(C)CC3)CC2)ccc1Nc1ncc(Cl)c(Nc2ccccc2P(C)(C)=O)n1 [Brigatinib] : 100.8%

Reported Long-term stability, 1 month, -20°C Accuracy [%] of O=C(c1ccc(F)c(F)c1Nc1ccc(I)cc1F)N1CC(O)([C@@H]2CCCCN2)C1 [Cobimetinib] : 98.9%

* * *

procedure details: Long-term stability in spiked pooled human plasma
assay setup: validation standard LLOV
recorded endpoint: Long-term stability, 1 month, -20°C Accuracy [%] (%)
Expressed in %, but write only the number.

Reference set, count: 3
compound	observed result
O=C(c1ccc(F)c(F)c1Nc1ccc(I)cc1F)N1CC(O)([C@@H]2CCCCN2)C1	101.1
O=C1CCC(N2C(=O)c3ccccc3C2=O)C(=O)N1 (stereo not shown) [Thalidomide]	71.4
CN(C)C(=O)c1cc2cnc(Nc3ccc(N4CCNCC4)cn3)nc2n1C1CCCC1	88.0

Reported Long-term stability, 1 month, -20°C Accuracy [%] of Cc1cn(-c2cc(NC(=O)c3ccc(C)c(Nc4nccc(-c5cccnc5)n4)c3)cc(C(F)(F)F)c2)cn1 : 91.9
